Cited source for all entries: ChEMBL document CHEMBL3882247

# test.target: Casein kinase II (Homo sapiens) (UniProt P67870+P68400+P19784)
# measurement.notes: Inhibition of CK2 (unknown origin) assessed as residual activity using E-peptide as substrate at 10 uM incubated for 10 mins prior to testing by capillary electrophoretic analysis
# Assay type: protein-complex assay
observable: Activity (%)

1) CC(=O)Oc1c(Cl)c(Cl)c2oc(C(=O)C=C(C)C)c(N)c2c1C#N = 7
2) CCOC(=O)c1oc2c(Cl)c(Cl)c(OC(C)=O)c(C#N)c2c1N = 31
